Biological target: T1, soluble KDR Ig4-7 domain (human, UniProt P35968 328-764)
T1 construct: domain: Ig4-7 domain; also called b-KDRIg4-7-myc-his; Ig4-7 domain of KDR; not shown: myc-his tag of the pSecTag construct
T1 sequence (P35968 328-764): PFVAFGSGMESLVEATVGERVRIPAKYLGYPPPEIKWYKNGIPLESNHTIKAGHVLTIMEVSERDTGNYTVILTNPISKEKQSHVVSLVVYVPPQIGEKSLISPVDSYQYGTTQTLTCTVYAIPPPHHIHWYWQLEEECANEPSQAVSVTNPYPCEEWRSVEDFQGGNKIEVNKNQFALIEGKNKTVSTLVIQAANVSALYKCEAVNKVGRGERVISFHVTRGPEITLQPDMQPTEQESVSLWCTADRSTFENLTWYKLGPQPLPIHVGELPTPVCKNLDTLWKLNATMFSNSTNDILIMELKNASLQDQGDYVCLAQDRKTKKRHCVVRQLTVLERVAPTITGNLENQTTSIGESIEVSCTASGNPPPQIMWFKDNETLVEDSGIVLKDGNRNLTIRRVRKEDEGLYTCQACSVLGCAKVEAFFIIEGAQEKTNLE
Experiment: ELISA, KDR Ig4-7 coat (1:1 diln.), antibody 1 ug/mL
ENDPOINT NAME: ELISA reading
One number for each entry.

BINDER	ELISA reading
33E1 (antibody, V domains shown, Fully human monoclonal antibody from a XenoMouse hybridoma (IgG2 or IgG4 strain), purified) VH: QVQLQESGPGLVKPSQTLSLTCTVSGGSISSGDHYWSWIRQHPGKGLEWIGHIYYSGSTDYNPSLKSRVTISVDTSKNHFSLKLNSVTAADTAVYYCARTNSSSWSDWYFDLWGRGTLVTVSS VL: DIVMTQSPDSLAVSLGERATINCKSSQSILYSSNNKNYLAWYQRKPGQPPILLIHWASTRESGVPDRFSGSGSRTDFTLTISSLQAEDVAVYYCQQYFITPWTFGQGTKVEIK	0.107

Could you now look at the following binder, please?
Field ELISA reading (entry 32F4 (antibody, V domains shown, Fully human monoclonal antibody from a XenoMouse hybridoma (IgG2 or IgG4 strain), purified) VH: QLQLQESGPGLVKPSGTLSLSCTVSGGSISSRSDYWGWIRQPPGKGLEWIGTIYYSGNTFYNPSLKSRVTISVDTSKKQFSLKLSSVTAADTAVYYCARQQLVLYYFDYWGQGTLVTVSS VL: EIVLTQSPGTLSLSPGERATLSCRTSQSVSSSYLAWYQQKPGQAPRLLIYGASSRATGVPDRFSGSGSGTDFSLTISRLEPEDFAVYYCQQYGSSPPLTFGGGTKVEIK ) reads 0.114
